Assay: Liver Microsome Stability Assay (human)
Settings: human liver microsomes, with NADPH, 1.0 uM compound
observable: Liver Microsome Stability (Multiple Species): Human - % Remaining after 30 min w/NADPH

{"columns": ["smiles.text", "result"],
 "data": [
  ["O=C(Nc1nc(CCc2coc(-c3ccccc3)n2)cs1)c1cccn1Cc1ccncc1", "0.45%"],
  ["CC(=O)N1CCC[C@H](Oc2ccc(N3CCC[C@@H]3c3csc(NC(=O)c4cccn4Cc4ccnc(F)c4)n3)cc2)C1", "0.5%"],
  ["CC(=O)Nc1ccc(N2CCC[C@@H]2c2csc(NC(=O)c3cccn3C[C@@H](C)CC#N)n2)cc1", "9.81%"],
  ["O=C(Nc1nc(/C=C/c2ncoc2C2CCCCC2)cs1)c1cccn1CC1CCOCC1", "5.39%"],
  ["O=C(Nc1nc([C@H]2CCCN2c2ccccc2)cs1)c1cccn1CC1CC(F)(F)C1", "63.4%"],
  ["O=C(NC/C=C/c1csc(NC(=O)c2cccn2Cc2ccncc2)n1)c1ccccc1", "0.37%"],
  ["O=C(Nc1nc([C@H]2CCCN2c2ccccc2)cs1)c1cccn1CCCC1COC1", "24.8%"],
  ["C[C@@H](O)c1ccc(N2CCC[C@@H]2c2csc(NC(=O)c3cccn3Cc3ccnc(F)c3)n2)cc1", "2.78%"]
]}

====

Test system: IL-2-FL/Gaussia Luciferase
Experiment: Dox Induced IL2-FL-Gluc Assay
Format: cell-based
Conditions: ratio of IL2FLGluc IC50 to PD1ssGluc IC50
24 hr Dox Inducible IL2FLGluc 293FRT/TO: IL2/PD1 below 4 gives No; 24 hr Dox Inducible IL2FLGluc 293FRT/TO: IL2/PD1 at or above it gives Yes.

{"columns": ["smiles.text", "system.under.test", "group"],
 "data": [
  ["CC(C)c1cc(/C=C/c2csc(NC(=O)c3cccn3Cc3ccnc(F)c3)n2)nn1C", "IL-2-FL/Gaussia Luciferase", "Yes"],
  ["Cc1ocnc1/C=C/c1csc(NC(=O)c2cccn2Cc2ccnc(F)c2)n1", "IL-2-FL/Gaussia Luciferase", "Yes"],
  ["Cc1ccc(/C=C/c2csc(NC(=O)c3cccn3Cc3ccncc3)n2)nc1F", "IL-2-FL/Gaussia Luciferase", "Yes"],
  ["Cc1cccc(/C=C/c2csc(NC(=O)c3cccn3Cc3ccnc(F)c3)n2)n1", "IL-2-FL/Gaussia Luciferase", "Yes"],
  ["O=C(Nc1nc([C@@H]2CCCN2c2ccc(C(F)(F)F)cc2)cs1)c1cccn1Cc1ccnc(F)c1", "IL-2-FL/Gaussia Luciferase", "No"],
  ["O=C1CCc2cc(N3CCC[C@@H]3c3csc(NC(=O)c4cccn4Cc4ccncc4)n3)ccc2N1", "IL-2-FL/Gaussia Luciferase", "No"],
  ["CC(C)n1cnc(/C=C/Cc2csc(NC(=O)c3cccn3Cc3ccnc(F)c3)n2)c1", "IL-2-FL/Gaussia Luciferase", "Yes"],
  ["O=C(Nc1nc([C@H]2CCCN2c2ccc(C3CCNCC3)cc2)cs1)c1cccn1Cc1ccncc1", "IL-2-FL/Gaussia Luciferase", "No"]
]}

====

System: IL-2-FL/Gaussia Luciferase
Experiment: Dox Induced IL2-FL-Gluc Assay
Assay type: cell-based
Details: ratio of IL2FLGluc IC50 to PD1ssGluc IC50
From the text: Flp-In 293 T-REx™ cells were transfected with pcDNA™5/FRT/TO plasmid inserted with cDNA encoding Gaussia Luciferase fused to the 3′ end of cDNA encoding full length IL-2 (amino acids 1-153). Transfected cells were selected for resistance to the selectable markers Hygromycin and Blasticidin to create a stable cell line that contained the IL-2-FL/Gaussia Luciferase cDNA insert whose expression was regulated under the T-REx™ system. […]
observable: 24 hr Dox Inducible IL2FLGluc 293FRT/TO: IL2/PD1

{"columns": ["molecule", "result"],
 "data": [
  ["O=C(Nc1nc([C@H]2CCCN2c2ccc(OC3CN(C(=O)CO)C3)cc2)cs1)c1cccn1Cc1ccnc(F)c1 [Compound A110]", 3.4],
  ["CC(=O)N1CCC(Oc2c(F)cc(N3CCC[C@@H]3c3csc(NC(=O)c4cccn4Cc4ccnc(F)c4)n3)cc2F)CC1 [Compound A106]", 1.6],
  ["CN(C)S(=O)(=O)N1CC(Oc2ccc(N3CCC[C@@H]3c3csc(NC(=O)c4cccn4Cc4ccnc(F)c4)n3)cc2)C1 [Compound A148]", 1.9],
  ["Cc1cn(C(C)C)nc1/C=C/c1csc(NC(=O)c2cccn2Cc2ccnc(F)c2)n1 [Compound B83]", 10]
]}

====

Test: Liver Microsome Stability Assay (rat)
Settings: rat liver microsomes, with NADPH, 1.0 uM compound
Overview of reported Liver Microsome Stability (Multiple Species): Rat - % Remaining after 30 min w/NADPH across a group of compounds:
observable: Liver Microsome Stability (Multiple Species): Rat - % Remaining after 30 min w/NADPH (%)

{"columns": ["compound", "number"],
 "data": [
  ["O=C(Nc1nc([C@H]2CCCN2c2ccccc2)cs1)c1cccn1CC1CCOCC1", 22.5],
  ["CC(C)c1c(/C=C/c2csc(NC(=O)c3cccn3Cc3ccnc(F)c3)n2)ncn1C", 9.66],
  ["O=C(Nc1nc(/C=C/c2cn3c(n2)CCC3)cs1)c1cccn1Cc1ccnc(F)c1", 2.51],
  ["NC(=O)N1CC(Oc2ccc(N3CCC[C@@H]3c3csc(NC(=O)c4cccn4Cc4ccnc(F)c4)n3)cc2)C1", 52.7],
  ["CC(=O)N1CCC(Oc2c(F)cc(N3CCC[C@@H]3c3csc(NC(=O)c4cccn4Cc4ccnc(F)c4)n3)cc2F)CC1", 3.12],
  ["O=C(Nc1nc([C@H]2CCCN2c2ccc(C3CCCCN3)cc2)cs1)c1cccn1Cc1ccncc1 (stereo partly shown)", 21.3],
  ["CCc1ccc(N2CCC[C@@H]2c2csc(NC(=O)c3cccn3Cc3ccncc3)n2)cc1", 11.7],
  ["N#CC[C@@H](O)Cn1cccc1C(=O)Nc1nc([C@H]2CCCN2c2ccccc2)cs1", 12.6],
  ["O=C1NC(/C=C/c2csc(NC(=O)c3cccn3Cc3ccncc3)n2)CO1 (stereo not shown)", 11],
  ["NCCOc1ccc(N2CCC[C@@H]2c2csc(NC(=O)c3cccn3Cc3ccnc(F)c3)n2)cc1", 76.5],
  ["CC(C)c1cc(/C=C/c2csc(NC(=O)c3cccn3Cc3ccnc(F)c3)n2)nn1C", 13.6],
  ["[2H]c1c([2H])c([2H])c(N2CCC[C@@H]2c2csc(NC(=O)c3cccn3Cc3ccnc(F)c3)n2)c([2H])c1[2H]", 12.8],
  ["O=C(Nc1nc(/C=C/c2cn3c(n2)CCC3)cs1)c1cccn1Cc1ccncc1", 0.1],
  ["O=C(Nc1nc([C@H]2CCCN2c2ccc(O[C@@H]3CCCNC3)cc2)cs1)c1cccn1Cc1ccnc(F)c1", 61.8],
  ["CC(=O)N1CCOC(/C=C/c2csc(NC(=O)c3cccn3Cc3ccncc3)n2)C1 (stereo not shown)", 2.71],
  ["CS(=O)(=O)N1CCC(Oc2ccc(N3CCC[C@@H]3c3csc(NC(=O)c4cccn4Cc4ccnc(F)c4)n3)cc2)CC1", 31.3],
  ["CC1CCCn2cnc(/C=C/c3csc(NC(=O)c4cccn4Cc4ccnc(F)c4)n3)c21 (stereo not shown)", 6.8],
  ["O=C(Nc1nc(/C=C/c2ncn3c2CCCC3)cs1)c1cccn1Cc1ccnc(F)c1", 17],
  ["O=C(Nc1nc([C@H]2CCCN2c2ccc(C3CCNCC3)cc2)cs1)c1cccn1Cc1ccncc1", 0.4],
  ["CC(=O)NCCOc1ccc(N2CCC[C@@H]2c2csc(NC(=O)c3cccn3Cc3ccnc(F)c3)n2)cc1", 9.82],
  ["CC(=O)N[C@H](C)c1ccc(N2CCC[C@@H]2c2csc(NC(=O)c3cccn3Cc3ccncc3)n2)cc1", 5.19],
  ["CC(=O)N1CCC(O[C@@H]2C[C@H](c3csc(NC(=O)c4cccn4Cc4ccncc4)n3)N(c3ccccc3)C2)CC1", 1.43],
  ["Cc1ccc(S(=O)(=O)N2CCC[C@@H]2c2csc(NC(=O)c3cccn3Cc3ccncc3)n2)cc1", 0.11],
  ["O=C(Nc1nc([C@H]2CCCN2c2ccc(OC3CCOCC3)cc2)cs1)c1cccn1Cc1ccncc1", 50],
  ["Cc1cc(Cn2cccc2C(=O)Nc2nc([C@H]3CCCN3c3ccccc3)cs2)ccn1", 0.63],
  ["CC1=NC(C)(/C=C/c2csc(NC(=O)c3cccn3Cc3ccncc3)n2)CO1 (stereo not shown)", 137],
  ["N#CC1CC1Cn1cccc1C(=O)Nc1nc([C@H]2CCCN2c2ccccc2)cs1 (stereo partly shown)", 8.19],
  ["N#Cc1cccc(Cn2cccc2C(=O)Nc2nc([C@H]3CCCN3c3ccccc3)cs2)c1", 2.9],
  ["O=C(Nc1nc(/C=C/c2ncoc2C2CCCCC2)cs1)c1cccn1Cc1ccncc1", 4.04],
  ["O=C(Nc1nc([C@H]2CCCN2c2ccc(OC3CN(C(=O)C4CC4)C3)cc2)cs1)c1cccn1Cc1ccnc(F)c1", 55.6],
  ["CC(C)n1cnc(/C=C/c2csc(NC(=O)c3cccn3CC3CCOCC3)n2)c1", 2.55]
]}

Value source: patent US20230286973A1
